read-out: Phosphatase and tensin (PTEN), PTEN (gene 5728); assay: LTEA_HepaRG_PTEN: Life Technologies and Expression Analysis (LTEA) Assay for Phosphatase and tensin (PTEN) using HepaRG (AID 2283523); conditions: mRNA level, 48 h; actives raise or lower the signal
Calls of active or inactive are those of the source. Rule for the calls: active = hit-call score of the fitted dose curve at least 0.9, where 1 is the maximum; inactive = score below 0.9.
Outcomes: Yes = active, No = inactive

>  <compound>
OC1CCCCC1

>  <answer_label>
No

$$$$
>  <compound>
OCCC(F)(F)C(F)(F)C(F)(F)C(F)(F)C(F)(F)C(F)(F)F

>  <answer_label>
No

$$$$
>  <compound>
CCCCCCCCCCCCN1CCCC1=O

>  <answer_label>
No

$$$$
>  <compound>
CC1=C(/C=C/C(C)=C/C=C/C(C)=C/C(=O)O)C(C)(C)CCC1

>  <answer_label>
No

$$$$
>  <compound>
CN1CCC[C@H]1c1cccnc1

>  <answer_label>
No

$$$$
>  <compound>
Cc1oc(-c2ccccc2)nc1CCOc1ccc(C[C@H](Nc2ccccc2C(=O)c2ccccc2)C(=O)O)cc1

>  <answer_label>
Yes

$$$$
>  <compound>
CN1CCN(c2ccccc2/C=C2\SCCN(c3ccc(Cl)c(Cl)c3)C2=O)CC1

>  <answer_label>
No

$$$$
>  <compound>
C=C(C)C(=O)OCCC(F)(F)C(F)(F)C(F)(F)C(F)(F)C(F)(F)C(F)(F)F

>  <answer_label>
No

$$$$
>  <compound>
O=C(OCCOCCOC(=O)c1ccccc1)c1ccccc1

>  <answer_label>
No

$$$$
>  <compound>
CC(C)(C)c1cc(C(C)(C)C)c(O)c(C(C)(C)C)c1

>  <answer_label>
No

$$$$
>  <compound>
Nc1cccc2c(N)cccc12

>  <answer_label>
No

$$$$
>  <compound>
c1ccc2cc3c(ccc4ccccc43)cc2c1

>  <answer_label>
No

$$$$
>  <compound>
NC(=O)N1C(=O)C(C(=O)c2cc(Cl)cs2)c2cc(F)c(Cl)cc21 (stereo not given)

>  <answer_label>
Yes

$$$$
>  <compound>
CCc1nn(C2CCCCC2)c2cc(C3(C#N)CCC(C(=O)O)CC3)ccc12 (stereo not given)

>  <answer_label>
No

$$$$
>  <compound>
CC#C[C@]1(O)CC[C@H]2[C@@H]3CCC4=CC(=O)CCC4=C3[C@@H](c3ccc(N(C)C)cc3)C[C@@]21C

>  <answer_label>
No

$$$$

----------
read-out: Glutamate-cysteine ligase regulatory (GCLM), GCLM (gene 2730); experiment: LTEA_HepaRG_GCLM: Life Technologies and Expression Analysis (LTEA) Assay for Glutamate-cysteine ligase regulatory (GCLM) using HepaRG (AID 2283500); conditions: mRNA level, 48 h; actives raise or lower the signal
Activity calls are given as the source filed them. Rule for the calls: active = hit-call score of the fitted dose curve at least 0.9, where 1 is the maximum; inactive = score below 0.9.
Outcomes: yes = active, no = inactive

>  <compound>
O=C(O)c1ccccc1C(c1ccc(O)cc1)c1ccc(O)cc1

>  <answer_label>
no

$$$$
>  <compound>
OC1CCCCC1

>  <answer_label>
no

$$$$
>  <compound>
CCC(C)(C)C1CCC(O)CC1 (stereo not drawn)

>  <answer_label>
no

$$$$
>  <compound>
CC(O)CO (stereo not drawn)

>  <answer_label>
no

$$$$
>  <compound>
CCCCCCCCCCCCN1CCCC1=O

>  <answer_label>
no

$$$$
>  <compound>
CCc1ccc(CCOc2ccc(CC3SC(=O)NC3=O)cc2)nc1 (stereo not drawn)

>  <answer_label>
yes

$$$$
>  <compound>
CC[C@H](C)[C@@H](C(=O)O)n1sc2ccccc2c1=O

>  <answer_label>
no

$$$$
>  <compound>
CC(C)(C)c1ccc(O)c(C(C)(C)C)c1

>  <answer_label>
no

$$$$
>  <compound>
OCCC(F)(F)C(F)(F)C(F)(F)C(F)(F)C(F)(F)C(F)(F)C(F)(F)C(F)(F)F

>  <answer_label>
no

$$$$
>  <compound>
CCCCCCCC(=O)O

>  <answer_label>
no

$$$$
>  <compound>
OCCC(F)(F)C(F)(F)C(F)(F)C(F)(F)C(F)(F)C(F)(F)F

>  <answer_label>
no

$$$$
>  <compound>
CCCCC(CC)COC(=O)CCCCC(=O)OCc1ccccc1 (stereo not drawn)

>  <answer_label>
no

$$$$
>  <compound>
CCCOC(=O)c1ccc(O)cc1

>  <answer_label>
no

$$$$
>  <compound>
O=C(O)Cc1cc(I)c(Oc2cc(I)c(O)c(I)c2)c(I)c1

>  <answer_label>
no

$$$$
>  <compound>
CC(C)(C)c1cc(C(C)(C)C)c(O)c(C(C)(C)C)c1

>  <answer_label>
no

$$$$
>  <compound>
CCc1nn(C2CCCCC2)c2cc(C3(C#N)CCC(C(=O)O)CC3)ccc12 (stereo not drawn)

>  <answer_label>
yes

$$$$
>  <compound>
CCC(=C(c1ccc(O)cc1)c1ccc(OCCN(C)C)cc1)c1ccccc1

>  <answer_label>
no

$$$$
>  <compound>
CCN(CC)CCNc1ccc(CNC=O)c2sc3ccc(OC)cc3c(=O)c12

>  <answer_label>
no

$$$$
>  <compound>
COCC(C)OCC(C)O (stereo not drawn)

>  <answer_label>
no

$$$$
>  <compound>
CCCCCCCCC(=O)O

>  <answer_label>
no

$$$$
>  <compound>
c1ccc2c(c1)Cc1ccccc1-2

>  <answer_label>
no

$$$$
>  <compound>
O=[N+]([O-])c1ccc(O)cc1

>  <answer_label>
no

$$$$
>  <compound>
CCCCC(CC)COC(=O)CCCCC(=O)OCC(CC)CCCC (stereo not drawn)

>  <answer_label>
no

$$$$
>  <compound>
CCCOc1sc(C(=O)N2CCC(c3cc(CN)ccc3F)CC2)c(C)c1Br

>  <answer_label>
no

$$$$
>  <compound>
CCCCCCCCCCCCCCCS(=O)(=O)Oc1ccccc1

>  <answer_label>
no

$$$$
>  <compound>
Oc1cc2ccccc2c2ccccc12

>  <answer_label>
no

$$$$
>  <compound>
ClC1=C(Cl)C(Cl)(Cl)C(Cl)=C1Cl

>  <answer_label>
no

$$$$
>  <compound>
CC1=C(/C=C/C(C)=C/C=C/C(C)=C/C(=O)O)C(C)(C)CCC1

>  <answer_label>
yes

$$$$
>  <compound>
C[C@@H]1C[C@H]2[C@@H]3CCC4=CC(=O)C=C[C@]4(C)[C@@]3(F)[C@@H](O)C[C@]2(C)[C@@]1(O)C(=O)COP(=O)(O)O

>  <answer_label>
no

$$$$
>  <compound>
CCCCOCCO

>  <answer_label>
no

$$$$
>  <compound>
CC#C[C@]1(O)CC[C@H]2[C@@H]3CCC4=CC(=O)CCC4=C3[C@@H](c3ccc(N(C)C)cc3)C[C@@]21C

>  <answer_label>
yes

$$$$
>  <compound>
CC(=O)CC(C)(C)O

>  <answer_label>
no

$$$$
>  <compound>
CC(C)(C)c1cccc(C(C)(C)C)c1O

>  <answer_label>
no

$$$$
>  <compound>
C#C[C@]1(O)CC[C@H]2[C@@H]3CCC4=CC(=O)CC[C@@H]4[C@H]3CC[C@@]21C

>  <answer_label>
no

$$$$
>  <compound>
CCCCCCCCOC(=O)CCCCCCCCC(=O)OCCCCCCCC

>  <answer_label>
no

$$$$
>  <compound>
CC[C@H](c1ccc(O)cc1)[C@@H](CC)c1ccc(O)cc1

>  <answer_label>
yes

$$$$
>  <compound>
c1ccc2cc3c(ccc4ccccc43)cc2c1

>  <answer_label>
yes

$$$$
>  <compound>
CC(C)(C)CC(C)(C)c1ccc(O)c(-n2nc3ccccc3n2)c1

>  <answer_label>
no

$$$$
>  <compound>
COCC(C)O (stereo not drawn)

>  <answer_label>
no

$$$$
>  <compound>
Cc1cc(CCN2CCN(c3nsc4ccccc34)CC2)cc2c1NC(=O)CC2(C)C

>  <answer_label>
yes

$$$$
>  <compound>
O=C(OCCOCCOC(=O)c1ccccc1)c1ccccc1

>  <answer_label>
no

$$$$
>  <compound>
CN1CCN(c2ccccc2/C=C2\SCCN(c3ccc(Cl)c(Cl)c3)C2=O)CC1

>  <answer_label>
no

$$$$
>  <compound>
N#C[C@@H]1CC(F)(F)CN1C(=O)CNC1CC2CCC(C1)N2c1ncccn1 (stereo partly drawn)

>  <answer_label>
no

$$$$

Taken from PubChem BioAssay (EPA / NIEHS).
